system: 13C-1F6; test: Michaelis-Menten Kinetic rate constant in the hydrolysis by 13C-1F6 was determined.; format: ADME
QUANTITY_NAME: Km (µM)
Write down the numeric answer in µM and omit the unit.

Could you tell me which Km is on file for CCCCCCCCCC(=O)OCC(COP(=O)([O-])OCC[N+](C)(C)C)OC(=O)CCCCCCC (racemic) ?
71

---

test: Compound was tested for the inhibition of antibody-catalyzed hydrolysis.
QUANTITY_NAME: pKi
FYI, pKi means -log10 of a concentration in mol per litre.

Could you tell me which pKi is on file for CCCCCCCCCCP(=O)(O)OC(COCCCCCCCCCC(=O)OC)COP(=O)([O-])OCC[N+](C)(C)C (stereo unspecified) ?
5.00
